assay: chemical genetic growth profiling, strain panel (AID 1159580);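 further: tested at 20 µM; growth read once vehicle control cultures reached saturation at 30 °C; 1 = growth at the plate median or of vehicle wells; lower values mean less growth of the strain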; conditions: S. cerevisiae deletion strains, growth OD, locus YPL256C, strain CLN2
Hit rate of the full screen: of about 5,500 compounds, about 2,000 (36%) were called active. Another 18% or so got no clear call; they are omitted. No stated cut-off is given here; in the data, active means normalized growth mostly below about 0.91 (no sharp cut-off); inconclusive means no clear call, values can overlap the other calls; inactive means mostly above about 0.92. The list shows a part of the results.
Classes to choose from: 1 for active, -1 for inactive

Answer briefly: the call reported for CC(C)=CC1C(CO)C1(C)C (centres undefined) in this assay.
-1

Which outcome was entered for the compound CC1(C)O[C@@H]2CC3C4C[C@H](F)C5=CC(=O)CC[C@]5(C)C4[C@@H](O)C[C@]3(C)[C@]2(C(=O)CO)O1 (some centres undefined) in this test?
-1

Which outcome was assigned to C=CCSCC=C in this test?
-1

What did this assay record as the result for CC1Cc2ccccc2N1NC(=O)c1ccc(Cl)c(S(N)(=O)=O)c1 (centres undefined) ?
-1

// return assay outcome for NC(=O)c1ccccc1O
-1

I would be grateful if you could indicate the recorded call for NS(=O)(=O)c1cc2c(cc1C(F)(F)F)NC(Cc1ccccc1)NS2(=O)=O (centres undefined) .
-1

Query: recorded result category for Oc1ccc([C@H]2Oc3cc(O)cc(O)c3C[C@H]2O)cc1 in this test
-1

How was CC1(C)S[C@@H]2[C@H](NC(=O)[C@@H](N)c3ccc(O)cc3)C(=O)N2[C@H]1C(=O)O classified in this test?
-1

Short answer needed: outcome of this test for CC1CCCC(C)N1NC(=O)c1ccc(Cl)c(S(N)(=O)=O)c1 (centres undefined) ?
-1

Give the logged outcome of this assay for the following compound: C=CCSC[C@@H](N)C(=O)O
-1

GET /call?item= COC(=O)C(N)CS (centres undefined) returns the recorded outcome of this test.
-1

What classification did OC(COCc1ccccc1)Cn1c2ccccc2c2ccccc21 (centres undefined) end up with in this test?
1

# outcome recorded in this test, key = CCN(CC)[N+]([O-])=NO
-1

# lookup: test call for C[C@@H](CO)NC(=O)C1C=C2c3cccc4[nH]cc(c34)C[C@H]2N(C)C1 (some centres undefined)
-1

Answer briefly: the call reported for C=CCSSCC=C in this assay.
-1

Identify the outcome logged in this assay for the compound shown: CO/N=C1/CC(C)(C)Cc2c(-c3ccn(C(=O)Nc4cccc(Cl)c4)n3)sc(SC)c21
-1

Record request — test call for O=C(Nc1ccc(SC(F)(F)F)cc1)Nc1ccc(Oc2cccc(C(F)(F)F)c2)nc1
-1

Record request — test call for Cc1ccccc1N1C(=O)c2cc(S(N)(=O)=O)c(Cl)cc2NC1C (centres undefined)
-1

Call for entry CN[C@H]1CC[C@@H](c2ccc(Cl)c(Cl)c2)c2ccccc21 :
-1

Look up the recorded call for O=C(O)CN(CCN(CC(=O)O)CC(=O)O)CC(=O)O in this test.
-1

Hey, what did the test say about CC(C)c1cccc(C(C)C)c1O ?
-1

Please indicate how the test categorized O=c1c(O)cc([C@H]2Oc3cc(O)cc(O)c3C[C@H]2O)cc2c([C@H]3Oc4cc(O)cc(O)c4C[C@H]3O)cc(O)c(O)c12 .
-1

// outcome(item) with item = N#Cc1c(Cl)cccc1Cl
-1

For CNC[C@H](O)c1cccc(O)c1 , which call appears in the assay record?
-1

###

assay: chemical genetic growth profiling, strain panel (AID 1159580);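 further: tested at 20 µM; growth read once vehicle control cultures reached saturation at 30 °C; 1 = growth at the plate median or of vehicle wells; lower values mean less growth of the strain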; conditions: S. cerevisiae deletion strains, growth OD, locus YER111C, strain swi4, hits give low values
About 2,000 (36%) of roughly 5,500 compounds were called active. Not shown: some 18% with an inconclusive outcome. The list shows a part of the results.
Record form. Attribute: normalized growth. Fill in for each entry.
The answer should be a number; do not append a unit.

# input compound: CC1(C)C(=O)CC[C@@]2(C)C1C[C@@H](O)[C@@]1(C)C3=CC(=O)O[C@@H](c4ccoc4)[C@]3(C)CCC21 (some centres undefined) ; wanted: its normalized growth
1.02

Query (compound): COc1ccccc1N1CCN(CCCNc2cc(=O)n(C)c(=O)n2C)CC1 ; field requested: normalized growth
1

Fill in the blank: the reported normalized growth of O=C(O)c1ccccc1O is ____.
0.97

Quick one: normalized growth for Cc1c(OCC(F)(F)F)ccnc1CS(=O)c1nc2ccccc2[nH]1 (centres undefined) ?
1.01

If you can, please state the reported normalized growth value of COC1CC(O[C@H]2CC[C@]3(C=O)C4CC[C@]5(C)C(C6=CC(=O)OC6)CC[C@]5(O)C4CC[C@]3(O)C2)OC(C)C1O (some centres undefined) .
0.994

Which normalized growth reading was recorded for the compound COc1c(O)cc2c(c1O)[C@H]1O[C@H](CO)[C@@H](O)[C@H](O)[C@@H]1OC2=O ?
1.01

Bench note: what normalized growth did CCc1ccc2c(O)c3c(cc2c1C(=O)OC)C(=O)c1c(O)ccc(O)c1C3=O show?
0.927

I am curious: what normalized growth value has been reported for NCCCC(O)(P(=O)(O)O)P(=O)(O)O ?
0.978

Dear colleague, I am looking for the recorded normalized growth of the following compound: CC(=O)Oc1ccccc1C(=O)Oc1ccccc1C(=O)O
0.994

Find the recorded normalized growth belonging to CC(C)c1cccc(C(C)C)c1O and report it.
0.973

normalized growth lookup needed for NC[C@H]1O[C@H](OC2[C@@H](N)C[C@@H](N)[C@H](O[C@H]3O[C@H](CO)[C@@H](O)[C@H](N)[C@H]3O)[C@H]2O)[C@H](O)[C@@H](O)[C@@H]1O (some centres undefined) , thanks.
0.994

normalized growth lookup needed for NC[C@H]1O[C@H](O[C@H]2[C@H](O)[C@@H](O[C@H]3O[C@H](CO)[C@@H](O)[C@H](N)[C@H]3O)[C@H](N)C[C@@H]2N)[C@H](N)[C@@H](O)[C@@H]1O , thanks.
0.998

For CC[C@@]1(O)C(=O)OCc2c1cc1n(c2=O)Cc2cc3ccccc3nc2-1 , what is its reported normalized growth?
0.97

Field request: normalized growth | item: O=c1c2cc(O)c(O)cc2oc2cc(O)c(C3O[C@H](CO)[C@H](O)[C@@H](O)[C@H]3O)c(O)c12 (some centres undefined)
1.03

// query normalized growth value for entry NC(=O)c1ccccc1O
0.97

Please give the measured normalized growth for this compound: C[C@@H]1CC[C@@]23CCC4(C)[C@@](C=CC5[C@@]6(C)CC[C@H](O)C(C)(C)C6CC[C@]54C)(OC2=O)C3[C@H]1C (some centres undefined)
1.04

Item under review: CC(=O)O[C@@H]1CC2C(C)(CC[C@H](O)C2(C)C)C2CC[C@]3(C)C(=CC(=O)O[C@H]3c3ccoc3)C21C (some centres undefined) . Reported normalized growth?
0.998

Fill blank: measured normalized growth of the compound O=C(Oc1ccccc1C(=O)O)c1ccccc1O is ____.
0.95

Dear colleague, I am looking for the recorded normalized growth of the following compound: CNC[C@H](O)c1cccc(O)c1
0.988

###

experiment: chemical genetic growth profiling, strain panel (AID 1159580);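 further: tested at 20 µM; growth read once vehicle control cultures reached saturation at 30 °C; 1 = growth at the plate median or of vehicle wells; lower values mean less growth of the strain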; details: S. cerevisiae deletion strains, growth OD, locus YER111C, strain swi4, hits give low values
About 2,000 (36%) of roughly 5,500 compounds were called active. Roughly 18% stayed inconclusive and do not appear here. The list shows a part of the results.
assay readout: normalized growth

Fill blank: measured normalized growth of the compound C[N+]1(C)C[C@H](O)[C@H](C(=O)[O-])C1 is ____.
1.02 (inactive)

Recorded normalized growth for N#Cc1c(Cl)cccc1Cl , please?
0.965 (inactive)

I would be grateful if you could share the reported normalized growth for OC1(c2ccc(Cl)c(C(F)(F)F)c2)CCN(CCCC(c2ccc(F)cc2)c2ccc(F)cc2)CC1 .
0.14 (active)

Suppose we examine the compound CC1(C)O[C@@H]2CC3C4C[C@H](F)C5=CC(=O)CC[C@]5(C)C4[C@@H](O)C[C@]3(C)[C@]2(C(=O)CO)O1 (stereo not given in full) ; what normalized growth value has been reported?
1 (inactive)

Consider the compound shown here: CC1(C)S[C@@H]2C(N3C(=O)[C@@H](c4ccccc4)NC3(C)C)C(=O)N2[C@H]1C(=O)O (stereo not given in full) What is its recorded normalized growth?
1.03 (inactive)

Item under review: CC1Cc2ccccc2N1NC(=O)c1ccc(Cl)c(S(N)(=O)=O)c1 (stereo not given) . Reported normalized growth?
1 (inactive)

// lookup normalized growth for Cc1ccccc1N1C(=O)c2cc(S(N)(=O)=O)c(Cl)cc2NC1C (stereo not given)
0.987 (inactive)

Reported normalized growth, compound O=C1CC2(CCCC2)CC(=O)N1CCCCN1CCN(c2ncccn2)CC1 : ____
1 (inactive)

# lookup: normalized growth of O=C(CCCN1CCC(O)(c2ccc(Cl)cc2)CC1)c1ccc(F)cc1
1.02 (inactive)

Find the recorded normalized growth belonging to O=C(CCCN1CCN(c2ccccn2)CC1)c1ccc(F)cc1 and report it.
0.947 (inactive)

What value of normalized growth has been reported for the following compound? CC12CCC(=O)C=C1CCc1ccccc12 (stereo not given)
0.972 (inactive)

Record request: normalized growth value, item C[C@H]1[C@H](C)CC[C@]2(C(=O)O)CC[C@]3(C)C(=CCC4[C@@]5(C)C[C@@H](O)[C@H](O)[C@@](C)(CO)C5[C@H](O)C[C@]43C)[C@H]12 (stereo not given in full)
0.955 (inactive)

Consider the compound shown here: CN(C)C(=O)C(CCN1CCC(O)(c2ccc(Cl)cc2)CC1)(c1ccccc1)c1ccccc1 What is its recorded normalized growth?
0.98 (inactive)

Endpoint output: normalized growth of COC1=CC(=O)C=C(OC)C1=O . Value?
1.01 (inactive)

Can you share its normalized growth? I mean this compound: CC1CCCC(C)N1NC(=O)c1ccc(Cl)c(S(N)(=O)=O)c1 (stereo not given)
1.01 (inactive)

For C[C@@H]1O[C@@H](O[C@H]2CC[C@]3(C=O)C4CC[C@]5(C)[C@@H](C6=CC(=O)OC6)CC[C@]5(O)C4CC[C@]3(O)C2)[C@H](O)[C@H](O)[C@H]1O (stereo not given in full) , what is its reported normalized growth?
0.988 (inactive)

I have this compound here, O=C(CCCN1CCC2(CC1)C(=O)NCN2c1ccccc1)c1ccc(F)cc1 , and I need its recorded normalized growth.
0.966 (inactive)

Look at this compound and give its reported normalized growth. COc1cccc2c1CCC1=CC(=O)CC[C@@]12C
1 (inactive)

Entry under review: CN[C@H]1CC[C@@H](c2ccc(Cl)c(Cl)c2)c2ccccc21 . Reported normalized growth?
1.01 (inactive)

For the compound shown here, O=C(O)C1=CC(=C(c2ccc(O)c(C(=O)O)c2)c2ccc(O)c(C(=O)O)c2)C=CC1=O , give the reported normalized growth.
0.961 (inactive)
